Where do these numbers come from? They come from ChEMBL document CHEMBL1938256.

Test system: Nucleic Acid
Assay: Induction of UV light-induced Escherichia coli pUC19 DNA cleavage assessed as conversion of supercoiled DNA into nicked form at 80 uM by neutral agarose gel electrophoresis
Format: nucleic-acid assay
Activity calls are given as the source filed them. The calls are words filed in the database; no cut-off is given here.
One label from this list, please: TRUE = active, FALSE = inactive

INSERT INTO assay_data (smiles_repr, label_class) VALUES
  ('O=C(O/N=C/c1cc2ccccc2nc1Cl)c1cc([N+](=O)[O-])cc([N+](=O)[O-])c1', 'TRUE'),
  ('O=C(O/N=C/c1cc2ccccc2nc1Cl)c1ccccc1F', 'TRUE'),
  ('O=C(O/N=C/c1cc2ccccc2nc1Cl)c1ccc(Br)cc1', 'TRUE'),
  ('O=C(O/N=C/c1cc2ccccc2nc1Cl)c1ccc(F)cc1', 'TRUE'),
  ('O=C(O/N=C/c1cc2ccccc2nc1Cl)c1ccccc1', 'FALSE');

Challenge: Dear colleague, could you share the recorded outcome for `O=C(O/N=C/c1cc2ccccc2nc1Cl)c1ccc([N+](=O)[O-])cc1` when you have a moment?
Response given: TRUE
